Sourced from patent US20160318866A1

target: human α2C receptor (Homo sapiens, UniProt P18825); construct: expressed in transfected cells; host or cells: CHO cells, also recombinantly expressing chimeric G protein Gαqi3 and mitochondrial obelin (mtOb); test: Antagonism against the adrenoreceptor α2C (luminescence, recombinant CHO cell line); format: cell-based; conditions: antagonism against adrenoreceptor α2C; noradrenaline 20 nM; tested up to 10 μM; read-out: IC50
Sequence (P18825 whole entry): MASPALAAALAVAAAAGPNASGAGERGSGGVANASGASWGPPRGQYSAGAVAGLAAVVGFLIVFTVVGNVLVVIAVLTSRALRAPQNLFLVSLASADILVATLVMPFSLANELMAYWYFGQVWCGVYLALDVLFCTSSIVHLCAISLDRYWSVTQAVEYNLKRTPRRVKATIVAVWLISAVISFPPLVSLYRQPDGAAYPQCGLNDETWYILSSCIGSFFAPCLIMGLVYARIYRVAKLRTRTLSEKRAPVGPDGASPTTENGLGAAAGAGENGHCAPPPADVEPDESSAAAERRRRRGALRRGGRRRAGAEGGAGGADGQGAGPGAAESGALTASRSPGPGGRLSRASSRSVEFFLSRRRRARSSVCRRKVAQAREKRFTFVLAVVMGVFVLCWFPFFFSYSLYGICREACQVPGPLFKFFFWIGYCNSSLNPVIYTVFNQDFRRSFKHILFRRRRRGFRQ
Counter-ions that a name gives are not always drawn.
Consider the following compounds; for each one, report its pIC50.
Bear in mind: pIC50 is minus log10 of a mol/L concentration; give just that figure.

// query pIC50 lookup needed for Cc1cc(CN(C)C(=O)c2ccc(C(=O)N3CCC(N4CCCC(C)C4)CC3)cc2)on1 (centres unmarked) , thanks.
// result 6.77

// query Please look up its pIC50: CCCC(C)NC(=O)c1ccc(C(=O)N2CCC(N3CCCC(C)C3)CC2)cc1 (centres unmarked)
// result 7.26

// query If you can, please state the reported pIC50 value of CC1CCCN(C2CCN(C(=O)c3ccc(C(=O)NC(C)(C)C)cc3)CC2)C1 (centres unmarked) [Example 38, trifluoroacetic acid salt] .
// result 6.86

// query Please report the recorded pIC50 for CC(C)(C)c1ccc(C(=O)N2CCC(N3CCCC(OC(=O)N4CCCC4)C3)CC2)cc1 (centres unmarked) [Example 40, trifluoroacetic acid salt] .
// result 6.90

// query If you can, please state the reported pIC50 value of "CC1=C(C)CN(C2CCN(C(=O)c3ccc(C(C)(C)C)cc3)CC2)CC1" .
// result 7.47
